species: Rattus norvegicus; assay: Open TG-GATES - Regimen: Daily Repeat; format: toxicity, organism-based, Sprague-Dawley; set-up: regimen Daily Repeat, gender Male, age 6 weeks; settings: in vivo, po, 100 mg/kg, 72 h, tissue Plasma, route gavage, dose level Low, time 3 day
Measured RALB accompanies every entry in the list below.
The answer is to be given in g/dL; state only the numeric part.

// worked examples, RALB included
INSERT INTO results (molecule, obs_value) VALUES
  ('O=C(O)c1ccccc1Nc1ccccc1', 2.7),
  ('CC(S)C(=O)NCC(=O)O (centres undefined)', 3.1),
  ('CCCCNC(=O)NS(=O)(=O)c1ccc(C)cc1 [TOLBUTAMIDE]', 2.6);

Look at this molecule and give its reported RALB. "CC(=O)[C@@]1(O)CC[C@H]2[C@@H]3C=C(Cl)C4=CC(=O)CC[C@]4(C)[C@H]3CC[C@@]21C" 3.1
